Hello, the source for this data is PubChem BioAssay AID1851, in case you need it.

# study_system: Cytochrome P450 1A2 (Homo sapiens) (UniProt P05177)
# Sequence (P05177 whole entry, looked up): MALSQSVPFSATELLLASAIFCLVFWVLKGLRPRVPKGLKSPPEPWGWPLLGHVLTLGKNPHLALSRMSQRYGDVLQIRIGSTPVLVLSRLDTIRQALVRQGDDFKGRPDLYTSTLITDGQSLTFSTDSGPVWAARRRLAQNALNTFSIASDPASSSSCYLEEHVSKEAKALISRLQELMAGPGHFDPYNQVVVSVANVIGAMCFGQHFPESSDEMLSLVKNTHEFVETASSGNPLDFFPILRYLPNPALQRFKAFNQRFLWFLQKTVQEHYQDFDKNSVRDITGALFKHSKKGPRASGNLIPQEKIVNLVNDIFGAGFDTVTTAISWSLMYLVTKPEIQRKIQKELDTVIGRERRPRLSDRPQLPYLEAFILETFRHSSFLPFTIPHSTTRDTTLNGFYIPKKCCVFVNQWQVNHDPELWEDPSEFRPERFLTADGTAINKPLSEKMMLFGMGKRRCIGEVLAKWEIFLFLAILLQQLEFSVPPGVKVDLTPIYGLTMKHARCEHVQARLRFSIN
# experimental_protocol: Cytochrome panel assay with activity outcomes
# run_conditions: recombinant CYP, pro-luciferin dealkylation, luminescence, p450-cyp1a2; series mostly up to 57.1 µM
Screen size: about 16,000 compounds; about 5,700 (36%) were called active. Another 24% or so got no clear call; they are omitted. The list shows a part of the results.
quantity_measured: AC50

INSERT INTO measurements (smiles_str, reported_measurement) VALUES
  ('CCOc1ccc(/C=C/C(=O)Nc2ccc(OC)cc2[N+](=O)[O-])cc1', 'inactive'),
  ('COc1ccc(NC(=O)c2cccs2)c([N+](=O)[O-])c1', '3.16 µM (active)'),
  ('COC(=O)c1ccc(NC(=O)c2ccccc2NS(=O)(=O)c2ccccc2)cc1', 'inactive'),
  ('COc1ccc(NC(=O)c2ccc(C)cc2Cl)c([N+](=O)[O-])c1', '2 µM (active)'),
  ('O=C(CNC(=O)c1ccccc1)NCC(=O)OCc1ccc(Cl)cc1', 'inactive'),
  ('COC(=O)c1ccc(NC(=O)c2cc3sccc3n2C)cc1', '8.91 µM (active)');

* * *

Reported activity, negative = inhibition values are given for each entry in this list.
# study_system: Cytochrome P450 1A2 (Homo sapiens)
# experimental_protocol: Cytochrome panel assay with activity outcomes; for activity, negative = inhibition: % is set by controls: 0 for no effect and ±100 for the full control effect
# run_conditions: recombinant CYP, pro-luciferin dealkylation, luminescence, p450-cyp1a2; series mostly up to 57.1 µM
In all, about 16,000 compounds went through this assay and about 5,700 (36%) were called active. Not shown: some 24% with an inconclusive outcome. Some of the results follow.
quantity_measured: activity, negative = inhibition

INSERT INTO measurements (smiles_str, study_system, reported_measurement) VALUES
  ('O=C(O)/C=C\C(=O)N1Cc2cc3ccccc3nc2C1', 'Cytochrome P450 1A2 (Homo sapiens)', '-16.3% [at 11.4 µM] (inactive)'),
  ('CC(=O)OC[C@@H]1O[C@@H](O/N=C2/C[C@@H](O)[C@@H](O)[C@@H]3[C@@H]4C(=O)N(Cc5ccccc5)C(=O)[C@H]4CC[C@@H]23)[C@H](OC(C)=O)[C@H](OC(C)=O)[C@@H]1OC(C)=O', 'Cytochrome P450 1A2 (Homo sapiens)', '-3.54% [at 11.4 µM] (inactive)'),
  ('CC(=O)OC[C@@H]1O[C@H](C/C=N\OC[C@@H](O)COCc2ccco2)C=C[C@@H]1OC(C)=O', 'Cytochrome P450 1A2 (Homo sapiens)', '1.52% [at 11.4 µM] (inactive)'),
  ('C[C@H]1/C=C\CC(=O)OC[C@H](C)C(=O)N2CCC[C@@H]2C(=O)OC1', 'Cytochrome P450 1A2 (Homo sapiens)', '7.07% [at 11.4 µM] (inactive)'),
  ('C#CCCCO/N=C1/C[C@@H](O)[C@@H](O)[C@@H]2[C@@H]3C(=O)N(C4CCCCC4)C(=O)[C@H]3CC[C@H]12', 'Cytochrome P450 1A2 (Homo sapiens)', '7.63% [at 11.4 µM] (inactive)'),
  ('CC(C)(C[C@@]1(C)NC(=O)NC1=O)OCc1ccccc1', 'Cytochrome P450 1A2 (Homo sapiens)', '-12.1% [at 2.29 µM] (inactive)'),
  ('Nc1cc(C(=O)O)[nH]c(=O)n1', 'Cytochrome P450 1A2 (Homo sapiens)', '-6.95% [at 11.4 µM] (inactive)'),
  ('CN(C)Cc1cc(Cl)c(O)c(CN(C)C)c1', 'Cytochrome P450 1A2 (Homo sapiens)', '-10.7% [at 11.4 µM] (inactive)'),
  ('O=C(O)[C@H]([C@H]1NCCS1)N1Cc2ccccc2C1', 'Cytochrome P450 1A2 (Homo sapiens)', '-13.4% [at 2.29 µM] (inactive)'),
  ('CN(C)CCNc1ccccn1', 'Cytochrome P450 1A2 (Homo sapiens)', '-5.87% [at 11.4 µM] (inactive)'),
  ('O=[N+]([O-])c1cc(Cc2cc([N+](=O)[O-])c3cccnc3c2O)c(O)c2ncccc12', 'Cytochrome P450 1A2 (Homo sapiens)', '-31.1% [at 2.29 µM] (inactive)'),
  ('COc1cccc([C@@H]2Oc3ccc(Br)cc3C(=O)[C@H]2O)c1', 'Cytochrome P450 1A2 (Homo sapiens)', '-3.35% [at 11.4 µM] (inactive)'),
  ('Cc1nc2cccc([N+](=O)[O-])c2n1CCCN(C)C', 'Cytochrome P450 1A2 (Homo sapiens)', '-16.9% [at 11.4 µM] (inactive)'),
  ('C[C@H]1COC(=O)[C@H](Cc2ccccc2)NC(=O)[C@@H](C)COC(=O)[C@H](Cc2ccccc2)NC1=O', 'Cytochrome P450 1A2 (Homo sapiens)', '9.1% [at 11.4 µM] (inactive)'),
  ('Oc1cc(O)c2c(c1)O[C@@H](c1ccc(O)c(O)c1)[C@H](O[C@@]1(c3cc(O)c(O)c(O)c3)Oc3cc(O)cc(O)c3[C@H](O)[C@@H]1O)C2', 'Cytochrome P450 1A2 (Homo sapiens)', '-13.3% [at 11.4 µM] (inactive)'),
  ('C=CC[C@@H]1C=C[C@@H](O/N=C(/C)CCC(=O)OC[C@@H]2O[C@H](C#Cc3ccccc3)C=C[C@@H]2Oc2ccc(C)cc2)[C@@H](CO)O1', 'Cytochrome P450 1A2 (Homo sapiens)', '4% [at 11.4 µM] (inactive)'),
  ('Cc1cc(C)n2nc(SCN3C(=O)c4ccccc4C3=O)nc2n1', 'Cytochrome P450 1A2 (Homo sapiens)', '18.7% [at 11.4 µM] (inactive)'),
  ('CC(C)=CCC/C(C)=C/CO/N=C1/C[C@@H](O)[C@@H](O)[C@@H]2[C@@H]3C(=O)N(C[C@@H]4CCCO4)C(=O)[C@H]3CC[C@@H]12', 'Cytochrome P450 1A2 (Homo sapiens)', '-6.43% [at 11.4 µM] (inactive)');
